SYSTEM: BRM (Homo sapiens, UniProt P51531)
Construct: made in house; host or cells: High Five insect cells
Sequence (P51531 whole entry): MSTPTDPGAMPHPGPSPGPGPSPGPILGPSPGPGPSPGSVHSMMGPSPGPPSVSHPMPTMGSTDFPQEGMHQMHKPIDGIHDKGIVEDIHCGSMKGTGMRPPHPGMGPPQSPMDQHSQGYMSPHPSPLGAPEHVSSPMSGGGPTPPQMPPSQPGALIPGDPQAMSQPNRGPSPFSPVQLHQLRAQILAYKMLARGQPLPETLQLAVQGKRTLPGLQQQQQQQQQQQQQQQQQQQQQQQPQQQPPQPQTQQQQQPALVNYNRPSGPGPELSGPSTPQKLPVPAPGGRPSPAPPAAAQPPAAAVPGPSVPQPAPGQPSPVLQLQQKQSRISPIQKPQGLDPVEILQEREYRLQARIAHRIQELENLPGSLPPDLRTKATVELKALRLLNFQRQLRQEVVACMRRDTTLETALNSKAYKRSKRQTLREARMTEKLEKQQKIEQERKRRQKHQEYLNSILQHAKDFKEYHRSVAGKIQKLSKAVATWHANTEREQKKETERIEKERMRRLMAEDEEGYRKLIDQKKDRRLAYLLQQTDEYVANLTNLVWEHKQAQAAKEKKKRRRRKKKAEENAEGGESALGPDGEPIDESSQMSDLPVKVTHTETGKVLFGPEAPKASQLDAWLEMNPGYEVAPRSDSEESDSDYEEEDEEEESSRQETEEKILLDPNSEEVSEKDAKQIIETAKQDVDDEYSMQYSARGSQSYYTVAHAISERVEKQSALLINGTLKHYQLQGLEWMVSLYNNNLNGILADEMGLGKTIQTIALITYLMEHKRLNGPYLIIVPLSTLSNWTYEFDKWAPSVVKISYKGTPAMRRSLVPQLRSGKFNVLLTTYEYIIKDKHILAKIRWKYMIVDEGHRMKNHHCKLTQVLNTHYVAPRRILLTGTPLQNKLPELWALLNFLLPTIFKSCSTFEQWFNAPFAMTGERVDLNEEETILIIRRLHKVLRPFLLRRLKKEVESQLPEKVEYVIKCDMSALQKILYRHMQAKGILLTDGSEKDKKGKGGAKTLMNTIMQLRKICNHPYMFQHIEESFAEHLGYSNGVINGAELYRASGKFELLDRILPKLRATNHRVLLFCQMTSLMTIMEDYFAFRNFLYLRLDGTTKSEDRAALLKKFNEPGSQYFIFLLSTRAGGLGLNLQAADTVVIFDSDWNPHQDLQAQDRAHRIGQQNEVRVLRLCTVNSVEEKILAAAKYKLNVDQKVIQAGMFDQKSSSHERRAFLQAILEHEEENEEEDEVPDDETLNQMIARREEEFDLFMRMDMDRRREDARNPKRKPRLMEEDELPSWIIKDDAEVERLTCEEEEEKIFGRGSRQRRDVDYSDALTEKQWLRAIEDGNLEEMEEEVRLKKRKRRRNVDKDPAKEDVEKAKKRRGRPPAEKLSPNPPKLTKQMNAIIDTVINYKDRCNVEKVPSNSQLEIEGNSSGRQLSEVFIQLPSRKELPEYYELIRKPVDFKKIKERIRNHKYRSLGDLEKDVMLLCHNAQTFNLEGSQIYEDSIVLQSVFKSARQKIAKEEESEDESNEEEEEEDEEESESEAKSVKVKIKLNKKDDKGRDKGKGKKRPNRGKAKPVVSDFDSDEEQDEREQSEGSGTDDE
ASSAY_NOTES: ATPase catalytic activity of BRM, ADP-Glo in vitro biochemical assay
DETAILS: ADP-Glo ATPase assay, 30 nM BRM, 400 μM ATP
Below, each entry is listed with its recorded pIC50.
Conceptually, pIC50 converts a concentration in mol/L into minus its log10.

Consider the worked cases shown below.
CC(=O)N1CCOc2c(-c3ccc4cnc(CNC(=O)c5ccc6c(c5)S(=O)(=O)CCOC6)cc4n3)cccc21 :: 6.45
COc1ccc(F)c2c1CCCN2c1ccc2cnc(CNC(=O)c3ccc4c(c3)S(=O)(=O)CCOC4)cc2n1 :: 7.98
CC(F)(F)COc1cccc(-c2ccc3cnc(CNC(=O)c4ccc5c(c4)S(=O)(=O)CCOC5)cc3n2)n1 :: 7.47
C[C@H]1COCc2ccc(C(=O)NCc3cc4nc(N5CCOc6cc(F)cnc65)ccc4cn3)cc2S1(=O)=O :: 7.88
CS(=O)(=O)c1cc(F)cc(C(=O)NCc2cc3nc(-c4cncc(C5CC5)n4)ccc3cn2)c1 :: 6.41

Could you tell me which pIC50 is on file for "C[C@@H]1CN(c2cccc(-c3ccc4cnc(CNC(=O)c5cccc(S(C)(=O)=O)c5Cl)cc4n3)n2)C[C@H](C)O1" ?
6.37

Can you handle "[2H]C1([2H])OC([2H])([2H])C([2H])([2H])S(=O)(=O)c2cc(C(=O)NCc3cc4nc(N5CCOc6ccc(C(F)F)nc65)ccc4cn3)ccc21" next?
7.72

----------
SYSTEM: BRM (Homo sapiens)
Construct: made in house; host or cells: High Five insect cells
ASSAY_NOTES: ATPase catalytic activity of BRM, ADP-Glo in vitro biochemical assay
DETAILS: ATPase catalytic activity, ADP-Glo; 30 nM BRM, 400 μM ATP
MEASURE: IC50 (nM)
Respond numerically; units are nM and should not be typed.

Guide cases for IC50, answers given:
COCCn1ncc2c1CCCN2c1ccc2cnc(CNC(=O)c3ccc4c(c3)S(=O)(=O)CCOC4)cc2n1 [Compound 400] :: 20.4
CO[C@@H]1CCN(c2cccc(-c3ccc4cnc(CNC(=O)c5ccc6c(c5)S(=O)(=O)CCOC6)cc4n3)n2)C[C@H]1C [Compound 353] :: 9.5

Give its IC50 value. Item: CC[C@@H]1CCS(=O)(=O)c2cc(C(=O)NCc3cc4nc(-c5cccc(N6C[C@@H](C)O[C@@H](C)C6)n5)ccc4cn3)ccc2O1 [Compound 580]
106

----------
Recorded pIC50 for the following compounds
SYSTEM: BRM (Homo sapiens)
Construct: made in house; host or cells: High Five insect cells
ASSAY_NOTES: ATPase catalytic activity of BRM, ADP-Glo in vitro biochemical assay
DETAILS: ADP-Glo ATPase assay, 30 nM BRM, 400 μM ATP
Please note pIC50 is a logarithmic value: minus log10 of concentration in mol/L. Answer with that number alone.

Cc1c(C2CC2)cnc2c1OCCN2c1ccc2cnc(CNC(=O)c3ccc4c(c3)S(=O)(=O)CCOC4)cc2n1 :: 7.61
CN1CCCc2ccc(C(=O)NCc3cc4nc(-c5cncc(C6CC6)n5)ccc4cn3)cc2S1(=O)=O :: 6.85
CO[C@H]1C[C@H](c2cccc(-c3ccc4cnc(CNC(=O)c5ccc6c(c5)S(=O)(=O)CCOC6)cc4n3)n2)C1 :: 7.12
Cc1ccc(-c2ccc3cnc(CNC(=O)c4ccc5c(c4)S(=O)(=O)CCOC5)cc3n2)c(=O)n1C :: 6.13

Entry under review: "COCc1cc2c(c(F)c1Cl)N(c1ccc3cnc(CNC(=O)c4ccc5c(c4)S(=O)(=O)CCOC5)cc3n1)CCO2" . Reported pIC50?
8.18

Then "O=C(NCc1cc2nc(-c3ccccc3Cl)ccc2cn1)c1ccc2c(c1)S(=O)(=O)CCOC2" ?
6.49

Continue with "CCN(CC)c1cccc(-c2ccc3cnc(CNC(=O)c4cc(F)c5c(c4)S(=O)(=O)CCOC5)cc3n2)n1"
7.72
